Tested on: Cotton Aphid (Aphis gossypii)
assay comment: Insecticidal test for cotton aphid, spray on infested squash cotyledons
Type: in vivo
stated conditions: 50 ppm spray, 3 days
Description: Insecticidal Test for Cotton Aphid (Aphis gossypii) To prepare spray solutions, 1 mg of each test compound was dissolved into 1 mL of a 90:10 acetone:ethanol solvent. This 1 mL of chemical solution was added to 19 mL of water containing 0.05% Tween 20 surfactant to produce a 50 ppm spray solution. Squash cotyledons were infested with cotton aphid (all life stages) 16–20 hours prior to application of spray solution. […]
value kind: CA: activity at 50 ppm against cotton aphid (% control rating)

Recorded results for 4 compounds are shown here.
{"columns": ["compound", "endpoint value"],
 "data": [
  ["Cc1cc(-c2cccc(OC(F)(F)F)c2)sc1-c1nc(-c2c(F)cccc2Cl)nn1C", "B (80–89)"],
  ["Cc1c(-c2nc(-c3c(F)cccc3Cl)nn2C)csc1-c1ccc(F)cc1F [drawing 233]", "B (80–89)"],
  ["Cc1cc(-c2cccc(C(F)(F)F)c2F)sc1-c1nc(-c2c(F)cccc2Cl)nn1C", "D (60–69)"],
  ["Cc1sc(-c2ccc(C(F)(F)F)cc2F)c(C)c1-c1nc(-c2c(F)cccc2Cl)nn1C", "B (80–89)"]
]}

Give CA: activity at 50 ppm against cotton aphid (% control rating) for "CSc1ccc(-c2scc(-c3nc(-c4c(F)cccc4Cl)nn3C)c2C)cc1" tested on Cotton Aphid (Aphis gossypii).
B (80–89)

Report the value of CA: activity at 50 ppm against cotton aphid (% control rating) obtained on Cotton Aphid (Aphis gossypii) for "Cn1nc(-c2c(F)cccc2Cl)nc1-c1sc(-c2ccc(Br)cc2)c(Cl)c1Cl" .
C (70–79)

# return CA: activity at 50 ppm against cotton aphid (% control rating) of "Cc1sc(-c2cc(C(F)(F)F)ccc2F)cc1-c1nc(-c2c(F)cccc2Cl)nn1C" (system: Cotton Aphid (Aphis gossypii))
D (60–69)

State CA: activity at 50 ppm against cotton aphid (% control rating) on Cotton Aphid (Aphis gossypii). Entry: "Cn1nc(-c2c(F)cccc2Cl)nc1-c1csc(-c2ccc(OC(F)(F)F)cc2F)c1"
C (70–79)
